The measurements presented in this section are drawn from patent US11001569B2.

# System: JJN-3 (NIK translocated) multiple myeloma cells
# assay details: Antiproliferative activity on JJN-3 multiple myeloma cells (CellTiter-Glo)
# Assay type: cell-based, human
# settings: Homo sapiens, JJN-3 (NIK translocated) cells, 96 hr treatment, averaged values, read-out: JJN-3 Proliferation inhibition (IC50 (nM))
measured property: IC50 (nM)
The reply should contain only the number, in nM.

[in] GET /values?readout=IC50&item= CC(C)OCCOc1ncc(Cl)cc1Nc1nccc(-c2cc(C#N)c3c(c2)[C@@](C)(CO)CN3)n1 [Compound 21]
[out] 813

* * *

Recorded measurements of log10 of IC50, one per entry
# system under test: recombinant human NF-kappaB-inducing Kinase (NIK/MAP3K14) (Homo sapiens, UniProt Q99558)
# Sequence (Q99558 whole entry): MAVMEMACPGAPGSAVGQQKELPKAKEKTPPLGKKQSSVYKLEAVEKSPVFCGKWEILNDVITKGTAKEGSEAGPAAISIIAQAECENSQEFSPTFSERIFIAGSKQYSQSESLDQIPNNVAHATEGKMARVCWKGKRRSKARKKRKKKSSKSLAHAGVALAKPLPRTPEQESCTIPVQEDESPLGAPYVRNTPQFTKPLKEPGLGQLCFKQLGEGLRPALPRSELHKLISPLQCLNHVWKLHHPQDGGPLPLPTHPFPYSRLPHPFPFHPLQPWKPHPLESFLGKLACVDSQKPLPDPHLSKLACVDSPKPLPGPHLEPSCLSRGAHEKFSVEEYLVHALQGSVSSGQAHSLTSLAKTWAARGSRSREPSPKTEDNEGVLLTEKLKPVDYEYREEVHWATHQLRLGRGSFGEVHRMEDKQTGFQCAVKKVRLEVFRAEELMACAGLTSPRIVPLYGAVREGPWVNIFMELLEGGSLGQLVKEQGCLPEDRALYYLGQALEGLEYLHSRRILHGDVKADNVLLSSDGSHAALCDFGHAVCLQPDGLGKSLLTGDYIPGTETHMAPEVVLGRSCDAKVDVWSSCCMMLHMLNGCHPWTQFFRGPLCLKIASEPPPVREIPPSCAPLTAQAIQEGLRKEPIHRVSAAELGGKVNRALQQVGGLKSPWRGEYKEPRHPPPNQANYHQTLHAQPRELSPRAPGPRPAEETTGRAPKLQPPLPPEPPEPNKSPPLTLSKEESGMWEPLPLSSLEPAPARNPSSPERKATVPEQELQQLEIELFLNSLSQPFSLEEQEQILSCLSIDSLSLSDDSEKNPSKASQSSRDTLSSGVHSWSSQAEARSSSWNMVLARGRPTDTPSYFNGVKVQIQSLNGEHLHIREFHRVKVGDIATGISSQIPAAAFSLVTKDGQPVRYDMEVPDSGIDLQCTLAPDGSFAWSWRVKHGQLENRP
# assay details: Inhibition of auto-phosphorylation of recombinant human NIK/MAP3K14 activity (AlphaScreen)
# Format: biochemical
# settings: 25 microM ATP, averaged over all measurements on all batches
Record value = log10 of IC50 given in nM.

Example cases with answers are listed next.
CCOc1ncc(Cl)cc1Nc1nccc(-c2cc(C#N)c3c(c2)[C@@](C)(CO)CN3)n1 | 1.20
Cc1cc(Nc2nccc(-c3cc(C#N)c4c(c3)[C@@](C)(COC(=O)C(C)C)CN4)n2)c(=O)n(CCN2CC(C)OC(C)C2)c1 (stereo partly drawn) [Compound 24i] | 1.37
CC1(CO)CNc2c(C#N)cc(-c3ccnc(Nc4cccnc4C(F)(F)F)n3)cc21 (stereo not drawn) | 0.99
COc1ncccc1Nc1nccc(-c2cc(C#N)c3c(c2)[C@@](C)(CO)CN3)n1 | 0.38
COc1ncccc1Nc1nccc(-c2cc(C#N)c3c(c2)C(C)(COCCNC(C)C)CN3)n1 (stereo not drawn) | 1.93

[in] GET /values?readout=log10 of IC50&item= `C[C@]1(CO)CNc2c(C#N)cc(-c3ccnc(Nc4cc(Cl)cnc4C4CC4)n3)cc21`
[out] 0.48

[in] GET /values?readout=log10 of IC50&item= Cc1cc(Nc2nccc(-c3cc(C#N)c4c(c3)[C@@](C)(CO)CN4)n2)c(=O)n(CC(C)N2CCOCC2)c1 (single isomer, unassigned) [Compound 23i]
[out] 0.36

[in] GET /values?readout=log10 of IC50&item= `COc1cccnc1Nc1nccc(-c2cc(C#N)c3c(c2)[C@@](C)(CO)CN3)n1`
[out] 2.09

[in] GET /values?readout=log10 of IC50&item= Cc1cc(Nc2nccc(-c3cc(C#N)c4c(c3)[C@@](C)(CO)CN4)n2)c(=O)n(CC(C)N2CCOCC2)c1 (mixture of isomers) [Compound 18i]
[out] -0.05

[in] GET /values?readout=log10 of IC50&item= `COCCNc1nc(OC)c(Nc2nccc(-c3cc(C#N)c4c(c3)[C@](C)(CO)CN4)n2)cc1Cl`
[out] 1.02

[in] GET /values?readout=log10 of IC50&item= Cc1cnc(OCC2CCCN2C2CC2)c(Nc2nccc(-c3cc(C#N)c4c(c3)[C@@](C)(CO)CN4)n2)c1 (mixture of isomers)
[out] 1.29

[in] GET /values?readout=log10 of IC50&item= `C[C@]1(CO)CNc2c(C#N)cc(-c3ccnc(Nc4cccnc4OC[C@@H]4CCCO4)n3)cc21`
[out] 0.79

[in] GET /values?readout=log10 of IC50&item= Cc1cnc(OCC2COCCN2C)c(Nc2nccc(-c3cc(C#N)c4c(c3)[C@@](C)(CO)CN4)n2)c1 (single isomer, unassigned) [Compound 149]
[out] 0.95

[in] GET /values?readout=log10 of IC50&item= COc1ncccc1Nc1nccc(-c2cc(C#N)c3c(c2)C(C)(COCCN2CCCC2)CN3)n1 (stereo not drawn)
[out] 1.81

[in] GET /values?readout=log10 of IC50&item= `COCCN(C)c1nc(OC)c(Nc2nccc(-c3cc(C#N)c4c(c3)[C@@](C)(CO)CN4)n2)cc1Cl`
[out] 1.29
